meta.source: patent US20250034201A1

experiment: Pharmacokinetic study with Compound 218 (IV 5 mg/kg, PO 25 mg/kg); type: in vivo; details: male, beagle, dog, plasma, iv, 5 mg/kg, analyte Compound 218; IV 5 mg/kg Compound 218; fasted male beagle dogs; mean; read-out: Compound 218 PK Vz
result type: Vd (L/kg)

>  <structure smiles>
CC(=O)[C@H]1CC[C@H]2[C@@H]3CC[C@H]4C[C@](C)(OC(=O)COC(=O)C(C)(C)N)CC[C@]4(C)[C@H]3CC[C@]12C

>  <result type>
Vd

>  <unit>
L/kg

>  <quantitative readout>
57.5

$$$$

----------
test: Rat liver microsomal stability; type: in vitro ADME; settings: rat liver microsomes, no NADPH, 1 h, compound 0.5 μM
Collected Rat Liver Microsomal Stability no NADPH, % remain 1 h values appear next to each entry.
result type: Rat Liver Microsomal Stability no NADPH, % remain 1 h (%)

>  <structure smiles>
COc1ccccc1N1CCN(CC(=O)O[C@]2(C)CC[C@@]3(C)[C@@H](CC[C@@H]4[C@@H]3CC[C@]3(C)[C@@H](C(C)=O)CC[C@@H]43)C2)CC1

>  <quantitative readout>
98.0

$$$$
>  <structure smiles>
CC(=O)[C@H]1CC[C@H]2[C@@H]3CC[C@H]4C[C@](C)(OC(=O)COC(=O)C(C)(C)OC(=O)CN(CCO)CCO)CC[C@]4(C)[C@H]3CC[C@]12C

>  <quantitative readout>
15

$$$$
>  <structure smiles>
CC(=O)[C@H]1CC[C@H]2[C@@H]3CC[C@H]4C[C@](C)(OC(=O)CNC(C)(C)C(=O)O)CC[C@]4(C)[C@H]3CC[C@]12C

>  <quantitative readout>
72

$$$$
>  <structure smiles>
COCCN(C)CC(=O)O[C@]1(C)CC[C@@]2(C)[C@@H](CC[C@@H]3[C@@H]2CC[C@]2(C)[C@@H](C(C)=O)CC[C@@H]32)C1

>  <quantitative readout>
99

$$$$
>  <structure smiles>
CC(=O)[C@H]1CC[C@H]2[C@@H]3CC[C@H]4C[C@](C)(OC(=O)CNCCO)CC[C@]4(C)[C@H]3CC[C@]12C

>  <quantitative readout>
98

$$$$
>  <structure smiles>
CC(=O)[C@H]1CC[C@H]2[C@@H]3CC[C@H]4C[C@](C)(OC(=O)CO)CC[C@]4(C)[C@H]3CC[C@]12C

>  <quantitative readout>
99.5

$$$$
>  <structure smiles>
CC(=O)[C@H]1CC[C@H]2[C@@H]3CC[C@H]4C[C@](C)(OC(=O)CN)CC[C@]4(C)[C@H]3CC[C@]12C

>  <quantitative readout>
99.7

$$$$
